# studyTarget: Ole e 1 (olive) (UniProt P19963)
# Sequence (P19963 whole entry): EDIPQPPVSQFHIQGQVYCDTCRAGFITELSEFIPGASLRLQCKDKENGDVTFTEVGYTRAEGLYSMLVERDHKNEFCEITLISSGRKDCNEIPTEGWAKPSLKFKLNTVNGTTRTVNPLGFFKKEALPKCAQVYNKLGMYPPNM
# assayComment: barcoded antigen sequencing of single IgE PCs with trapped IgE [cont.]
assayEndpoint: Normalized Barcode Count
Give bare numbers.

binder	Normalized Barcode Count
Candidate ID 21 (antibody, V domains shown) VH: QVQLQQSGPELVKPGASVKISCKAPGNAFSYSWMNWVKQRPGKGLEWVGRIYPGDGDTNYNGKFMGKATLTADKSSNTAYIQLSSLTSEDSAVYFCARSGGGTLYWYFDVWGTGTTVTVSS VL: DIVMTQSPSSLALSVGQKVTMNCRSSQSLLNSFNQKNYLAWFQQKPGQSPRLLIYFASTRESGVPDRFIGSGSGTDFTLTISSVQAEDLADYFCQQHYNTPLTFGAGTTLELK	0.826
Candidate ID 7 (antibody, V domains shown) VH: QVLLKESGPGLVAPSQSLSITCTVSGFSLTSYGVSWVRQPPGKGLEWLGVIWGDGNTDYHSALISRLSIRKDNSKSQVFLKLNSLQTDDTATYYCAIGSPFAYWGQGTLVTVSA VL: DVLMTQTPLSLPVSLGDQVSISCRSSQNIVHSTGNTYLEWYLQKPGQSPKLLIFKVSNRLSGVPDRFSGSGSGTDFTLNISRVEAADLGIYSCFQGSHVPFTFGSGTKLEIK	-1.13
Candidate ID 9 (antibody, V domains shown) VH: EVQLQQSGPELVKPGASVKISCKASGYTFTDYYMNWVKQSHGKSLEWIGDINPNNGGTSYNQKFKGKATLTVDKSSSTAYMELRSLTSEDSAVYYCAYGPPRGPPWFAYWGQGTLVTVSA VL: DIVLTQSPASLAVSLGQRATISCRASKSVSTSGYSYMHWYQQKPGQPPKLLIYLASNLESGVPARFSGSGSGTDFTLNIHPVEEEDAATYYCQHSRELPWTFGGGTKLEIK	0.029
Candidate ID 16 (antibody, V domains shown) VH: EVHLQQSGPDLVKPGASVMISCQASGYSFTAYYINWVKQSPEKSLEWIGEINPGSGGVIYNRKFEAKATLIVDKSSNTAFMLLTRLTSEDSAIYYCARKGFYQFDYWGQGTTLTVSS VL: SVVMTQIPKFLVVSAGDRVTITCKASQSVNDGVFWYQQKTGQSPKLVIYHTSNRYTGVSDRFTGSGYGTEFTFTISAVQSEDLAIYFCQQDYTSPLTFGGGTRLEIK	0.603

Here's the next entry for you.
Fill in: Normalized Barcode Count of Candidate ID 13 (antibody, V domains shown) VH: QAYLQQSGAELVRPGASVKMSCKASGYTFISYNMHWVKQTRRQGLEWIGAIYPGNGDTSYNQKFKGKATLTVDKSSSTAYMQLSSLTSEDSAVYFCARWDYYGSSYGAYWGQGTLVTVSA VL: DIQMTQSPASLSVSVGETVTITCRASENIYSNLAWYQQKQGKSPQLLVYAATNLADGVPSRFSGSGSGTQYSLKINSLQSEDFGSYYCQHFWGTPWTFGGGTKLEIK is ___
-0.434

The measurements presented in this section are drawn from patent US20230349919A1.
